Origin of values: patent US11420984B2

I'd be grateful if you could share measured AUC for these entries.
Assay: Bioavailability / pharmacokinetic study in male rats (IV and PO)
Format: in vivo, rat
Settings: plasma; pro-drug itself, observed when dosed as pro-drug; male rat, PO 5 mg/kg
Give just the numeric value; µM·h need not be written.

Form field AUC, entry CC(C)[C@H](N)C(=O)N[C@H]1CN[C@@](CCCCB(O)O)(C(=O)O)C1 : 0.24

Form field AUC, entry N[C@@H](CO)C(=O)N[C@H]1CN[C@@](CCCCB(O)O)(C(=O)O)C1 : 0.38

Form field AUC, entry CC(C)(O)[C@H](N)C(=O)N[C@H]1CN[C@@](CCCCB(O)O)(C(=O)O)C1 : 6.9

Form field AUC, entry NCC(=O)N[C@H]1CN[C@@](CCCCB(O)O)(C(=O)O)C1 : 0.62

Form field AUC, entry CC(C)[C@H](N)C(=O)N[C@H]1CN[C@]2(CCCCB(O)OC2=O)C1 : 0.21

---

Experiment: Bioavailability / pharmacokinetic study in male rats (IV and PO)
Format: in vivo, rat
Conditions: male, rat, plasma, iv; read-out: Vdss
MEASURED_PROPERTY: Vd (L/kg)
Give just the numeric value; L/kg need not be written.

Form field Vd, entry N[C@H]1CN[C@@](CCCCB(O)O)(C(=O)O)C1 : 0.26

---

Target: Human Arginase 2 (Homo sapiens (Human), UniProt P78540)
Sequence (P78540 23-354): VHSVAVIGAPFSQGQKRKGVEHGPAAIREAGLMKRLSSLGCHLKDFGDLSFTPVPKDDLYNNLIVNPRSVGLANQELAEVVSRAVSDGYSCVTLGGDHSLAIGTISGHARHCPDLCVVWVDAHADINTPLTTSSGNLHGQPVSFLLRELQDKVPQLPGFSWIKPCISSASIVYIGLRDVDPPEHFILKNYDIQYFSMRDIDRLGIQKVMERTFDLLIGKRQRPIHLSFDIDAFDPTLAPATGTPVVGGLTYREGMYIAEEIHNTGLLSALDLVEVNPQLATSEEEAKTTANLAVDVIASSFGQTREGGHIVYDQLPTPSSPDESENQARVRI
Assay: Human Arginase 2 enzyme inhibition (thioarginine/DTNB absorbance assay)
Conditions: recombinant enzyme 5 nM, 0.5 mM thioarginine premix, 60 min
I'd be grateful if you could share measured pIC50 for these entries.
Lab note — pIC50 values are minus log10 of concentrations in M.

Form field pIC50, entry C[C@H](N)C(=O)N[C@H]1CN[C@@](CCCCB(O)O)(C(=O)O)C1 : 6.25

Form field pIC50, entry CN(C)[C@H]1CN[C@](CCCCB(O)O)(C(=O)O)C1 : 6.82

Form field pIC50, entry CC(C)(O)[C@H](N)C(=O)N[C@H]1CN[C@@](CCCCB(O)O)(C(=O)O)C1 : 6.28

Form field pIC50, entry CC[C@H](C)[C@H](N)C(=O)N[C@H]1CN[C@@](CCCCB(O)O)(C(=O)O)C1 : 6.59

Form field pIC50, entry O=C(O)[C@@]1(CCCCB(O)O)C[C@H](O)CN1 : 4.67

Form field pIC50, entry NC[C@H](N)C(=O)N[C@H]1CN[C@@](CCCCB(O)O)(C(=O)O)C1 : 5.88

Form field pIC50, entry COC[C@H](N)C(=O)N[C@H]1CN[C@@](CCCCB(O)O)(C(=O)O)C1 : 6.42

Form field pIC50, entry CC(C)(C)[C@H](N)C(=O)N[C@H]1CN[C@@](CCCCB(O)O)(C(=O)O)C1 : 6.70

---

I'd be grateful if you could share measured clearance for these entries.
Experiment: Bioavailability / pharmacokinetic study in male rats (IV and PO)
Type: in vivo, rat
Conditions: plasma; pro-drug itself, observed when dosed as pro-drug; male rat, IV 2 mg/kg
Give just the numeric value; mL/min/kg need not be written.

Form field clearance, entry CC[C@H](C)[C@H](N)C(=O)N[C@H]1CN[C@@](CCCCB(O)O)(C(=O)O)C1 [Example 15] : 104

Form field clearance, entry N[C@@H](CO)C(=O)N[C@H]1CN[C@@](CCCCB(O)O)(C(=O)O)C1 [Example 17] : 40.5

Form field clearance, entry CC(C)[C@H](N)C(=O)N[C@H]1CN[C@]2(CCCCB(O)OC2=O)C1 [Example 19] : 36.8

Form field clearance, entry CC(C)(O)[C@H](N)C(=O)N[C@H]1CN[C@@](CCCCB(O)O)(C(=O)O)C1 [Example 20] : 8.9
